# target-entity: UniProtKB Q4UDU8
# measurement-description: intrinsic tryptophan fluorescence quenching (ATPase Km […])
# Assay type: binding
observable: Kd (µM)
Use µM as the unit, but write only the number.

Asked: I have this compound here, Nc1ncnc2c1ncn2[C@@H]1O[C@H](COP(=O)(O)OP(=O)(O)OP(=O)(O)O)[C@@H](O)[C@H]1O [ATP] , and I need its recorded Kd.
Given back: 179

---

# target-entity: TA12105 (T. annulata cytoplasmic HSP90) (Theileria annulata, UniProt Q4UDU8)
# Sequence (Q4UDU8 whole entry): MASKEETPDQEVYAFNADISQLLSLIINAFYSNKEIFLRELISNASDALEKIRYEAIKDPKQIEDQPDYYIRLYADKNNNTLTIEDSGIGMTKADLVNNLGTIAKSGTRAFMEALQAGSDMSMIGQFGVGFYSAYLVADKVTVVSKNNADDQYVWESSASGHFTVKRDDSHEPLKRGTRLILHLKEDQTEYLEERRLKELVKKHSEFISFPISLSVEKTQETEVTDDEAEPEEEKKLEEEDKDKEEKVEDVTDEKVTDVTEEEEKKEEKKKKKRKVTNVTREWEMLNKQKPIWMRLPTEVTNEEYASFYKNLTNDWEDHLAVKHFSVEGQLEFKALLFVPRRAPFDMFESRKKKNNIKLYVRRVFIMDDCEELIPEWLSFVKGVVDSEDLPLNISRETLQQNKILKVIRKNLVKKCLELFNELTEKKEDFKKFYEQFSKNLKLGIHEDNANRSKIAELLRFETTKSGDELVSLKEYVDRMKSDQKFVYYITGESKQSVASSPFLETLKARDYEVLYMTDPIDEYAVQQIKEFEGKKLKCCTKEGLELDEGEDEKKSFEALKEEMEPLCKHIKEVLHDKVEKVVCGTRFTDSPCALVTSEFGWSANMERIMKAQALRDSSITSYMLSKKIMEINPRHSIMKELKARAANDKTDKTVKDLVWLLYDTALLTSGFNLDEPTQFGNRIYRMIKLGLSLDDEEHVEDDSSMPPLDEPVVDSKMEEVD
# measurement-description: biochemical
observable: Kd (µM)
Use µM as the unit, but write only the number.

Asked: Hi! What's the reported Kd for C=CCNC1=C2C[C@@H](C)C[C@H](OC)[C@H](O)[C@@H](C)/C=C(\C)[C@H](OC(N)=O)[C@@H](OC)/C=C\C=C(/C)C(=O)NC(=CC1=O)C2=O [17-AAG] on TA12105 (T. annulata cytoplasmic HSP90) (Theileria annulata, UniProt Q4UDU8)?
Given back: 7.67
